experimentalSystem: human recombinant D3 receptor (Homo sapiens (Human))
Sequence (P35462 whole entry): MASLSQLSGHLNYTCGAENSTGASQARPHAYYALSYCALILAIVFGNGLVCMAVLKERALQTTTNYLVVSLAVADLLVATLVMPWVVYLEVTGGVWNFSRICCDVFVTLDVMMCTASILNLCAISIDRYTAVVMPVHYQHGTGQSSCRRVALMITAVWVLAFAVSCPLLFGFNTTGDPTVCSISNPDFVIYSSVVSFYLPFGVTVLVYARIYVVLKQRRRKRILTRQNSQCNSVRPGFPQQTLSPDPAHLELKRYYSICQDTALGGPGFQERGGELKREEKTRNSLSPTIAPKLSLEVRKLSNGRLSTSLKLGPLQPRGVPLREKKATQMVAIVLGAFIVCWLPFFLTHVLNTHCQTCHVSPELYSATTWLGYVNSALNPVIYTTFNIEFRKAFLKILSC
assayInfo: Test of binding inhibition for dopamine D3 receptor
statedConditions: Jump-In HEK cell membranes, 2 nM [3H]-Methylspiperone, 120 min at 25° C.; read-out: hD3_Ki
Record form. Attribute: Ki. Fill in for each entry.
Answers are plain numbers, in nM.

See these solved cases before continuing.
| molecule | readoutValue |
| --- | --- |
| Cc1ncccc1C(=O)N[C@H]1CC[C@H](CCN2C[C@@H]3C[C@]3(c3cc(C(C)(F)F)on3)C2)CC1 | 0.25 |
| O=C(N[C@H]1CC[C@H](CCN2CCC(c3nocc3-c3ccccc3)CC2)CC1)c1cccc2ncccc12 | 0.12 |
| Cn1cc2c(C(=O)NN3CCC(CCN4C[C@@H]5C[C@]5(c5cc(C(C)(F)F)on5)C4)CC3)cccc2n1 | 0.24 |

# next molecule below
Exam item: Return Ki for the following molecule: CC(F)c1cc(C23CC2CN(CC[C@H]2CC[C@H](NC(=O)c4cccc5nn(C)cc45)CC2)C3)no1 (stereo partly shown)
Marked response: 0.77
